Consider the following compounds; for each one, report its MIC.
# Tested on: Pseudomonas aeruginosa
# Assay protocol: antimicrobial activity (MIC) against Pseudomonas aeruginosa
# Type: cell-based
One number for each entry, in µg/mL.

Solved cases (3 shown):
1. NC(CCOc1ccc(C(=NO)C(=O)NC2CN(C(C(=O)O)c3ccccc3)C2=O)cc1)C(=O)O (stereo not shown): 4
2. NC(CCOc1ccc(C(=NO)C(=O)NC2CN(C(C(=O)O)c3ccc(O)cc3)C2=O)cc1)C(=O)O (stereo not shown): 2.5
3. O=C(NC1CN(C(C(=O)O)c2ccco2)C1=O)C(=NO)c1ccccc1 (stereo not shown): 60

Now for a further compound.
Param readout = MIC; param system = Pseudomonas aeruginosa; param query = NC(CCOc1ccc(C(=NO)C(=O)NC2CN(C(C(=O)O)c3cccs3)C2=O)cc1)C(=O)O (stereo not shown) ; response: value
4
